- test_target: FYN (Mus musculus, UniProt P39688)
- Construct: […]; from tissue; host or cells: mouse brain
- Sequence (P39688 whole entry): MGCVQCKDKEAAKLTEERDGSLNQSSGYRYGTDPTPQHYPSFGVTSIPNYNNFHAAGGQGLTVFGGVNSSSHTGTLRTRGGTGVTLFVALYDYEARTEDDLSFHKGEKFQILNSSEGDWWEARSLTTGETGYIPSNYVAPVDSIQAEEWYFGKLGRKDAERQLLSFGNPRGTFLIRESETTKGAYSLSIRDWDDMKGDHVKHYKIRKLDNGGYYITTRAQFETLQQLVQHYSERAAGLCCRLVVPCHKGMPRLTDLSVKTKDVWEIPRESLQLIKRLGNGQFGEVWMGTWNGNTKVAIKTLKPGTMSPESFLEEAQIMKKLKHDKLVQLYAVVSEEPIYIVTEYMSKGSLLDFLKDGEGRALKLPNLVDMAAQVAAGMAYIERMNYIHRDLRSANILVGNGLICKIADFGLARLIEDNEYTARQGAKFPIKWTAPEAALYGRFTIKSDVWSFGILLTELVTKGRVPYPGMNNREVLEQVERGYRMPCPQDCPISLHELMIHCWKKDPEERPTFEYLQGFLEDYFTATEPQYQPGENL
- assay_procedure: Kinobeads elution with test compound, mouse brain lysate, MS
- Type: binding
- particulars: kinase released from kinobeads by specific elution
I'd appreciate it if you could supply mass spectrometry score, FYN values for the items below.
Numbers only.

Example compounds with recorded mass spectrometry score, FYN:
CCCCCCCCCCCCOS(=O)(=O)[O-].[Na+]	407
Cn1c(=O)c(-c2c(Cl)cccc2Cl)cc2cnc(Nc3ccc(CN)cc3)cc21	279
CC(C)[C@H](CO)Nc1nc(Nc2ccc(C(=O)O)c(Cl)c2)c2ncn(C(C)C)c2n1 [Purvalanol B, reference compound]	268

// switching to the query compound
Ask: Provide mass spectrometry score, FYN value for the following compound: CNC1CC2OC(C)(C1OC)n1c3ccccc3c3c4c(c5c6ccccc6n2c5c31)C(=O)NC4 (stereo not shown)
Reply: 314

Source listed as patent US20090238808A1.
